From: patent US20170137410A1

Biological target: activated IR (Homo sapiens)
Test: In vitro IR enzymatic assay (ADP-Glo)
Conditions: ATP 50 μM
pIC50: −log10 of the molar value.
Assay Metric: pIC50

Here's what some known entries look like.
{"Molecule": "CCN(C(=O)[C@@H]1CCCN1c1nc2c(c(Nc3cc(C(C)(C)C)[nH]n3)n1)CCC2)c1nccs1 [144b]", "pIC50": 5.22}
{"Molecule": "CC(C)(C)c1cc(Nc2nc(N3CCC[C@H]3C(=O)N3CCC(F)(F)CC3)nc3c2CCC3)n[nH]1 [142b]", "pIC50": 4.93}
{"Molecule": "CCN(C(=O)[C@@H]1CCCN1c1nc2c(c(Nc3cc(C(C)C)[nH]n3)n1)CCC2)c1nccs1 [145b]", "pIC50": 6.17}

A: CCC(=O)N1CCN(C(=O)[C@H]2CCCN2c2nc3c(c(Nc4cc(C5CCCC5)[nH]n4)n2)CCC3)CC1 [143a]
B: CCC(=O)N1CCN(C(=O)[C@@H]2CCCN2c2nc3c(c(Nc4cc(C5CCCC5)[nH]n4)n2)CCC3)CC1 [143b]
C: CC(C)(C)c1cc(Nc2nc(N3CCC[C@@H]3C(=O)N3CCC(F)(F)CC3)nc3c2CCC3)n[nH]1 [142a]
D: CC(C)c1cc(Nc2nc(N3CCC[C@H]3C(=O)N(C)c3nccs3)nc3c2CCC3)n[nH]1 [68b]
Order the 4 molecules from highest to lowest pIC50. Dear reader, please state the labels in the requested order.
D, A, C, B

###

Biological target: activated IR (Homo sapiens, UniProt P06213)
Construct: purchased Millipore 14-803
Sequence (P06213 28-1382): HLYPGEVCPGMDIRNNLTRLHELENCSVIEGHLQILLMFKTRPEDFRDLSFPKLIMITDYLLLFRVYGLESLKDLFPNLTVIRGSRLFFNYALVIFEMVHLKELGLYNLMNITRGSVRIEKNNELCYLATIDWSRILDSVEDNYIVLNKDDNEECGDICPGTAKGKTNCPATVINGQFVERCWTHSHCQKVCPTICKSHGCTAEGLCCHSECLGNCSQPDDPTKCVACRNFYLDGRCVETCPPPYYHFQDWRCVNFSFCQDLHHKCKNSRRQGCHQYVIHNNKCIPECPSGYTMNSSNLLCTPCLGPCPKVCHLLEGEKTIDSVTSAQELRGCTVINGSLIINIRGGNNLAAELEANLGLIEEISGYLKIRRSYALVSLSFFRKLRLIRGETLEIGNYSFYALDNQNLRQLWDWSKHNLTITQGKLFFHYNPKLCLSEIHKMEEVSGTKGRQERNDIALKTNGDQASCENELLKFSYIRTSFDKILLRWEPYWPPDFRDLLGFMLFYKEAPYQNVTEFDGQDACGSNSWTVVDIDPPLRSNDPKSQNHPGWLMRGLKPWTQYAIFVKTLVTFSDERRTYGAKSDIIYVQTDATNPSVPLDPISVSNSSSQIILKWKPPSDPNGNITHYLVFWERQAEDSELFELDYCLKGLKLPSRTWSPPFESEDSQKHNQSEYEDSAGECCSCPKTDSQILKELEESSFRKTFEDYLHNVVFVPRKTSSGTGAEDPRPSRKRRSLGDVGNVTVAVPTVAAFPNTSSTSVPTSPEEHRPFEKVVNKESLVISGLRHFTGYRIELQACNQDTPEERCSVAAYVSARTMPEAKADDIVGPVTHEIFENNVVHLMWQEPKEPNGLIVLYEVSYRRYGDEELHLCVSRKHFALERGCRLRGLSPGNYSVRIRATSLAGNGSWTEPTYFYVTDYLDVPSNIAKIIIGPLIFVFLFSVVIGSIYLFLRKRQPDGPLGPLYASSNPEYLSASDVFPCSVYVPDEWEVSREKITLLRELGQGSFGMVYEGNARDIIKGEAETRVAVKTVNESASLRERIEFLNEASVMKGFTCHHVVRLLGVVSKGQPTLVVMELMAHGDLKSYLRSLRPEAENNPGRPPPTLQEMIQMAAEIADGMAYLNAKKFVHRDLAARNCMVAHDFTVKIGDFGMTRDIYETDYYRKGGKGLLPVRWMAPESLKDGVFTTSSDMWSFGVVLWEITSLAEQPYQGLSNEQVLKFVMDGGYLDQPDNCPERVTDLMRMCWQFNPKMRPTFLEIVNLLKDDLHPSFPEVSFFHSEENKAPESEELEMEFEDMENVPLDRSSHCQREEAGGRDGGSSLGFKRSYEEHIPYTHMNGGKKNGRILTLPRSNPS
Experiment: In vitro IR enzymatic assay (ADP-Glo)
Format: biochemical
Conditions: compound 1 μM, ATP 50 μM
Assay Metric: inhibition at 1 µM (%)

A: CN1CCN(C(=O)[C@H]2CCCN2c2nc3c(c(Nc4cc(C5CCCC5)[nH]n4)n2)CCC3)CC1 [134a]
B: O=C([C@@H]1CCCN1c1nc2c(c(Nc3cc(C4CCCC4)[nH]n3)n1)CCC2)N1CCC(F)(F)C1 [109b]
Between A and B , whose recorded inhibition at 1 µM is greater? To answer, give the label that identifies your chosen option.
A

###

In what follows, each item is paired with its pIC50 for Trk C (Homo sapiens).
pIC50: −log10 of the molar value.
Assay Metric: pIC50

Below: 2 compounds and their reported pIC50.
{"Compound": "CC(C)c1cc(Nc2nc(N3CCC[C@H]3C(=O)N3CCCC3)nc3c2CCC3)n[nH]1 [138b]", "Assay Metric": "pIC50", "Result Value": 8.85}
{"Compound": "CN(C)C(=O)[C@H]1CCCN1c1nc2c(c(Nc3cc(C4CCOCC4)[nH]n3)n1)CCC2 [91a]", "Assay Metric": "pIC50", "Result Value": 6.74}

I: CC(C)c1cc(Nc2nc(N3CCC[C@@H]3C(=O)N3CCCC3)nc3c2CCC3)n[nH]1 [138a]
II: CN1CCN(C(=O)[C@@H]2CCCN2c2nc3c(c(Nc4cc(C5CCCC5)n[nH]4)n2)CCC3)CC1=O [136b]
API: POST /compare with I and II ; response names the item with higher pIC50. Indicate your choice by writing its label.
II
(II: 7.37, I: 6.98)

###

Molecular target: activated IGF-1R (Homo sapiens, UniProt P08069)
Construct: purchased Millipore 14-802
Sequence (P08069 31-1367): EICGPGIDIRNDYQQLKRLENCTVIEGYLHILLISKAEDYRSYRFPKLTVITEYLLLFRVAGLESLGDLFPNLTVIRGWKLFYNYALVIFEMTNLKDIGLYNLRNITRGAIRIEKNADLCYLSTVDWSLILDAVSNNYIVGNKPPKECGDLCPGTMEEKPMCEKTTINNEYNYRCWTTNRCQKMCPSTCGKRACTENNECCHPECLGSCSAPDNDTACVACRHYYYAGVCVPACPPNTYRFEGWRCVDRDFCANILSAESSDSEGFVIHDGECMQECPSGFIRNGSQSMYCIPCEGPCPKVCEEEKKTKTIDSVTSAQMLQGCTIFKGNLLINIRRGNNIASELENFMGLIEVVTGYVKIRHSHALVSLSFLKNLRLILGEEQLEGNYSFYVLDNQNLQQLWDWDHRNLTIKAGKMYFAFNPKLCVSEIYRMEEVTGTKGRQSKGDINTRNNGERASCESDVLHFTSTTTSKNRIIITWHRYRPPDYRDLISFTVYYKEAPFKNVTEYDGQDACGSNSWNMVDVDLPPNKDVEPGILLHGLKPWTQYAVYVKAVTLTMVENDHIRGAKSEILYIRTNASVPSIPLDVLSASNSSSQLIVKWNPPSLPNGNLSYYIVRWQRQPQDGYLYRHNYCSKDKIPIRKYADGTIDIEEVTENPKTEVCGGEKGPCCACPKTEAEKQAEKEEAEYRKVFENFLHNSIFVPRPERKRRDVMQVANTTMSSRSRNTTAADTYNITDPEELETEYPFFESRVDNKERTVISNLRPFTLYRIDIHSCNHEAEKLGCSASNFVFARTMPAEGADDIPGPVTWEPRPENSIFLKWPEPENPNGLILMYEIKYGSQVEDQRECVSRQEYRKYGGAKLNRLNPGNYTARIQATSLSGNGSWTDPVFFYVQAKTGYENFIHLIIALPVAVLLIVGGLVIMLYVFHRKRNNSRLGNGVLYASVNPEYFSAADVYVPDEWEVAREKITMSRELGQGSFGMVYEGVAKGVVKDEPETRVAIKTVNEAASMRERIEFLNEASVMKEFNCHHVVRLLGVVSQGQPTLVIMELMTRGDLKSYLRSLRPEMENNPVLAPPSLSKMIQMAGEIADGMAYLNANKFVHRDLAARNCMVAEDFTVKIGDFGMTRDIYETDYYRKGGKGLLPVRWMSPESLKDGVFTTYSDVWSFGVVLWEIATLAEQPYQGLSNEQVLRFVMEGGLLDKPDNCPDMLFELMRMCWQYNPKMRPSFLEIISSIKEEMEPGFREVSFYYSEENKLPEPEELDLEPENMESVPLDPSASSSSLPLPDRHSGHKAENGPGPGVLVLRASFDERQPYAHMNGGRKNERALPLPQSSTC
Assay: In vitro IGF-1R enzymatic assay (ADP-Glo)
Format: biochemical
Conditions: compound 30 μM, ATP 100 μM
Procedure: Inhibition of IGF-1R and IR kinases by compounds described herein were tested. The IC50 values were measured in vitro using an ADP-Glo kinase assay Kit (Promega). For the IGF-1R assay, active recombinant IGF-1R (Millipore #14-802) was used at 1 ng/reaction, the substrate IGF-1R tide (Millipore #12-527) was used at 125 μM and ATP was used at 100 μM. […]
Assay Metric: inhibition at 30 µM (%)

Here are 3 compounds together with their reported answers.
{"Compound": "CN(C(=O)[C@@H]1CCCN1c1nc2c(c(Nc3cc(C4CCCC4)n[nH]3)n1)CCC2)c1nccs1 [70b]", "Tested On": "activated IGF-1R (Homo sapiens, UniProt P08069)", "inhibition at 30 µM / %": 95}
{"Compound": "CC1(C)CCN(C(=O)[C@H]2CCCN2c2nc3c(c(Nc4cc(C5CCCC5)n[nH]4)n2)CCC3)CC1 [141a]", "Tested On": "activated IGF-1R (Homo sapiens, UniProt P08069)", "inhibition at 30 µM / %": 96}
{"Compound": "CC(C)c1cc(Nc2nc(N3CCC[C@H]3C(=O)N3CCCC3)nc3c2CCC3)n[nH]1 [138b]", "Tested On": "activated IGF-1R (Homo sapiens, UniProt P08069)", "inhibition at 30 µM / %": 94}

1: O=C([C@@H]1CCCN1c1nc2c(c(Nc3cc(C4CCCC4)[nH]n3)n1)CCC2)N1CCC(F)(F)C1 [109b]
2: CN(C)C(=O)[C@H]1CCCN1c1nc2c(c(Nc3cc(C4CCOCC4)[nH]n3)n1)CCC2 [91a]
Endpoint returns whichever of 1 and 2 has the numerically higher inhibition at 30 µM. Your choice should be expressed through its label.
1

A: O=C([C@H]1CCCN1c1nc2c(c(Nc3cc(C4CCCC4)[nH]n3)n1)CCC2)N1CC(F)(F)C(F)(F)C1 [110a]
B: CN1CCN(C(=O)[C@@H]2CCCN2c2nc3c(c(Nc4cc(C5CCCC5)n[nH]4)n2)CCC3)CC1=O [136b]
Which value of inhibition at 30 µM is numerically greater: that of A or that of B ? # answer = label of selected item
A

###

Target: activated IGF-1R (Homo sapiens, UniProt P08069)
Test: In vitro IGF-1R enzymatic assay (ADP-Glo)
Settings: ATP 100 μM
Description: Inhibition of IGF-1R and IR kinases by compounds described herein were tested. The IC50 values were measured in vitro using an ADP-Glo kinase assay Kit (Promega). For the IGF-1R assay, active recombinant IGF-1R (Millipore #14-802) was used at 1 ng/reaction, the substrate IGF-1R tide (Millipore #12-527) was used at 125 μM and ATP was used at 100 μM. […]
pIC50: −log10 of the molar value.
# reported pIC50; entries follow

{"Compound": "CC1(C(=O)N2CCC(F)(F)CC2)CCCN1c1nc2c(c(Nc3cc(C4CCCC4)[nH]n3)n1)CCC2 (racemic) [compound 146]", "Tested On": "activated IGF-1R (Homo sapiens, UniProt P08069)", "pIC50": "< 4.52"}
{"Compound": "CC(C)(C)c1cc(Nc2nc(N3CCC[C@H]3C(=O)N3CCC(F)(F)CC3)nc3c2CCC3)n[nH]1 [142b]", "Tested On": "activated IGF-1R (Homo sapiens, UniProt P08069)", "pIC50": "< 5.00"}

Value lookup for pIC50; key = CCC(=O)N1CCN(C(=O)[C@@H]2CCCN2c2nc3c(c(Nc4cc(C5CCCC5)[nH]n4)n2)CCC3)CC1 [143b]
< 4.52

###

Target: FLT3 (D835Y) (Homo sapiens, UniProt P36888, D835Y)
Sequence (P36888 27-993 D835Y): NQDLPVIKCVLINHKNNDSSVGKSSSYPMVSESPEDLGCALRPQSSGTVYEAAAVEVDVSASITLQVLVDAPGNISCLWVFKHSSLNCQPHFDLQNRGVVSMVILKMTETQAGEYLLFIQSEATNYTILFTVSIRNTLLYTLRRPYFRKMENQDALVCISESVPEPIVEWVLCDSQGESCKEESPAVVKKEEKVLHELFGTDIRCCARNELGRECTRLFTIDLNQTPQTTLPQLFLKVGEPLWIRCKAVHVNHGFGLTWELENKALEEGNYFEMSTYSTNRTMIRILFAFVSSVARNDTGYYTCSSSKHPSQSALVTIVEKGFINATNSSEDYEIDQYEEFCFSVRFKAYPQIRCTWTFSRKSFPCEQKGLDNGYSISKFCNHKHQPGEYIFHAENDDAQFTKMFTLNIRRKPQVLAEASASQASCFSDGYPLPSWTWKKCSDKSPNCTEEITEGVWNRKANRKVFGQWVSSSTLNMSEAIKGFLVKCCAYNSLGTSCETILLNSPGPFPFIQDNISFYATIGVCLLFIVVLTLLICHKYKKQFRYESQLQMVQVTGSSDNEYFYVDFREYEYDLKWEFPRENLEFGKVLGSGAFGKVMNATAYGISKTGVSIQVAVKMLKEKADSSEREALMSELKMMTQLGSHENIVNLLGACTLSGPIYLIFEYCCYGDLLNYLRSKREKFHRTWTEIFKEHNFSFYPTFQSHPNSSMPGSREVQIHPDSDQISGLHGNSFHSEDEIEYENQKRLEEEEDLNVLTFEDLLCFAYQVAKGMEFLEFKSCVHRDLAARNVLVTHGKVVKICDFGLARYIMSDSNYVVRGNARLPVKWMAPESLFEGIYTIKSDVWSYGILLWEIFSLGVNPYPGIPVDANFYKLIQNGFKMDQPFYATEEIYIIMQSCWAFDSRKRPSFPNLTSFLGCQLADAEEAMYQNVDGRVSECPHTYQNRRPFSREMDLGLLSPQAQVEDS
Test: HotSpot kinase assay against FLT3 (D835Y)
Conditions: HotSpot 33P assay, ATP 10 μM
Assay Metric: IC50

{"Molecule": "CC(C)(C)c1cc(Nc2nc(N3CCC[C@H]3C(=O)N3CCC(F)(F)CC3)nc3c2CCC3)n[nH]1 [142b]", "Assay Metric": "IC50", "Result Value": "> 1000 nM"}
{"Molecule": "CCN(C(=O)[C@@H]1CCCN1c1nc2c(c(Nc3cc(C(C)(C)C)[nH]n3)n1)CCC2)c1nccs1 [144b]", "Assay Metric": "IC50", "Result Value": "> 1000 nM"}

Read the next record carefully.
Requested field: IC50. Item: CC(C)(C)c1cc(Nc2nc(N3CCC[C@@H]3C(=O)N3CCC(F)(F)CC3)nc3c2CCC3)n[nH]1 [142a]
> 1000 nM
